tested.system: RIPK1 (Homo sapiens)
Sequence (Q13546 1-671): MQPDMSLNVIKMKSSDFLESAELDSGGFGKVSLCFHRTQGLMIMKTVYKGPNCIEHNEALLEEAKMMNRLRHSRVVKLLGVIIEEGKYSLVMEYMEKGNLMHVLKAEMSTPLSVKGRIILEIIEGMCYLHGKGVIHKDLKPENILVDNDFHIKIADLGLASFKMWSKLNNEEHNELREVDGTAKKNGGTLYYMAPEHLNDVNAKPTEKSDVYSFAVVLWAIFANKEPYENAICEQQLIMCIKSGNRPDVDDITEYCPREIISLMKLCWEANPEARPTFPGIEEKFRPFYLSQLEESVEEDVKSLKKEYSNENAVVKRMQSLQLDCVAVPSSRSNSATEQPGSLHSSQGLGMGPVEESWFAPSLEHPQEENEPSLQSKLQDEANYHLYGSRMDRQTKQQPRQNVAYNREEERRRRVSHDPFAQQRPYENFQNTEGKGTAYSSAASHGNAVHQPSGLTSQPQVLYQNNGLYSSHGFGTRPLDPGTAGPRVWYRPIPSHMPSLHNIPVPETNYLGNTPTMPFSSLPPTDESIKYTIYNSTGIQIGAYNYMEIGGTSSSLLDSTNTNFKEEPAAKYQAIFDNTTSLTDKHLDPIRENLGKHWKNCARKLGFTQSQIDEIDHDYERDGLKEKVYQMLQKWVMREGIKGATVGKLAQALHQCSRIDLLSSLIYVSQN
experiment.description: RIPK1 ADP-Glo biochemical kinase assay
experimental.context: read-out: RIPK1 ADP-Glo Kinase (IC50)
Procedure: In this example, compounds of the disclosure were evaluated using a biochemical assay using the ADP-Glo™ technology. ADP-Glo™ (Promega, Madison, WI, USA) reagents were thawed at ambient temperature. […] The plate was quickly centrifuged and the reaction was incubated at 30° C. for 30 minutes. […] The relative light unit (RLU) of kinase reaction was determined by luminescent (Luminescence 0.1 s) using a Wallac Victor2 Luminometer (PerkinElmer, Waltham, MA, USA).
I'd appreciate it if you could supply pIC50 values for the items below.
pIC50 is defined as minus the log10 of a concentration measured in mol/L.

Return reported pIC50; argument: "Cc1cccc(Cc2cnn(C(=O)N[C@H]3COc4ccc(C#CC5(O)COC5)cc4N(C)C3=O)c2)n1"
7.81

Return reported pIC50; argument: "CN1C(=O)[C@@H](NC(=O)c2cc(Oc3cccnc3)ccn2)COc2ccc(C#CC(C)(C)C)cc21"
7.53

Return reported pIC50; argument: "CN1C(=O)[C@@H](NC(=O)c2cc(Oc3cncc(F)c3)ccn2)COc2ccc(C#CC(C)(C)O)cc21"
7.89
